Just for reference, ChEMBL document CHEMBL3433997 is where these values come from.

Recorded inhibition values for a group of compounds are listed next.
Biological target: Glucose transporter (Leishmania mexicana) (UniProt O61059)
Experiment: ST_JUDE_LEISH: Cytotoxicity at 2uM final concentration against transgenic Leishmania Mexicana promastigotes LmGT2 that are glucose transport deficient and complemented with the L. Mexicana glucose transporter 2. Activity is measured by DNA content using SYBR green in vitro
Assay type: functional
Note: unit % is implicit; provide only the numeric part.

Worked examples follow.
What value of inhibition has been recorded for this entry: O=C(NCCN1Cc2ccccc2C1=O)c1ccc(Oc2ccc(C(=O)NCCN3Cc4ccccc4C3=O)cc2)cc1 -0.4

May I ask what inhibition has been recorded for CCCc1cc(OC)c(CC2c3cccc(O)c3CCN2C)cc1OC (centres undefined) ? -0.12

Report inhibition for CCCCCOc1ccc(/N=C2\C=C(O)C(=O)c3ccccc32)cc1 please. 2.17

***
Form field: reported inhibition of CCOC(=O)c1ccc(NC(=O)N[C@@H](Cc2ccccc2)C(=O)NC2CCN(Cc3ccc(OCCCN(C)C)cc3)C2)cc1 (some centres undefined) 0.98

# get_value(readout='inhibition', item= N#Cc1cccc(Nc2ncc3c(-c4cccc(NC(=O)Cc5cccc(Cl)c5)c4)c[nH]c3n2)c1 ) 0.18

Suppose we examine the compound O=C(c1ccc([N+](=O)[O-])o1)N1CCN(c2nc3c(Cl)cccc3s2)CC1 ; what inhibition value has been reported? 4.58

Can you share its inhibition? I mean this compound: Cc1cc2ccc(/C=C/C(=O)NC3CCC(CCN4CCc5ccc(C#N)cc5CC4)CC3)cc2[nH]1 (centres undefined) 2.92

Can you share its inhibition? I mean this compound: O=C(NOCc1ccccc1)c1cc(Cl)ccc1O 2.15
